System: Staphylococcus sp.
Experiment: In vitro antibacterial evaluation: minimum inhibitory concentration (MIC), broth dilution method
Type: cell-based
Conditions: strain GC 4545
Field 'label' (enum: fulfilled / not fulfilled). Set to fulfilled when MIC Staphylococcus aureus (GC 4545) is strictly under 4 µg/mL; else not fulfilled.

INSERT INTO results (molecule, class) VALUES
  ('CC(c1ccccc1)C1NC(=O)CNC(=O)C(CO)NC(=O)C(C(O)C2CNC(=N)N2C2OC(CO)C(O)C(O)C2O)NC(=O)C(C(O)C2CNC(=N)N2)NC(=O)C(Cc2ccc(OC3OC(CO)C(OC4OC5COC6(CCCCC6)OC5C(O)C4O)C(O)C3O)cc2)NC1=O (centres unmarked)', 'fulfilled'),
  ('CCCC(C)C1OCC2OC(OC3C(CO)OC(Oc4ccc(CC5NC(=O)C(C(C)c6ccccc6)NC(=O)CNC(=O)C(CO)NC(=O)C(C(O)C6CNC(=N)N6C6OC(CO)C(O)C(O)C6O)NC(=O)C(C(O)C6CNC(=N)N6)NC5=O)cc4)C(O)C3O)C(O)C(O)C2O1 (centres unmarked)', 'fulfilled'),
  ('CC(C)CC1OCC2OC(OC3C(CO)OC(Oc4ccc(CC5NC(=O)C(C(C)c6ccccc6)NC(=O)CNC(=O)C(CO)NC(=O)C(C(O)C6CNC(=N)N6C6OC(CO)C(O)C(O)C6O)NC(=O)C(C(O)C6CNC(=N)N6)NC5=O)cc4)C(O)C3O)C(O)C(O)C2O1 (centres unmarked)', 'fulfilled'),
  ('CC(c1ccccc1)C1NC(=O)CNC(=O)C(CO)NC(=O)C(C(O)C2CNC(=N)N2C2OC(CO)C(O)C(O)C2O)NC(=O)C(C(O)C2CNC(=N)N2)NC(=O)C(Cc2ccc(OC3OC(CO)C(OC4OC5COC(CCc6ccccc6)OC5C(O)C4O)C(O)C3O)cc2)NC1=O (centres unmarked)', 'fulfilled'),
  ('CC(c1ccccc1)C1NC(=O)CNC(=O)C(CO)NC(=O)C(C(O)C2CNC(=N)N2C2OC(CO)C(O)C(O)C2O)NC(=O)C(C(O)C2CNC(=N)N2)NC(=O)C(Cc2ccc(OC3OC(CO)C(OC4OC5COC6(CCCCCCCCCCCC6)OC5C(O)C4O)C(O)C3O)cc2)NC1=O (centres unmarked)', 'not fulfilled'),
  ('COc1ccc2cc(C3OCC4OC(OC5C(CO)OC(Oc6ccc(CC7NC(=O)C(C(C)c8ccccc8)NC(=O)CNC(=O)C(CO)NC(=O)C(CC8CNC(=N)N8C8OC(CO)C(O)C(O)C8O)NC(=O)C(CC8CNC(=N)N8)NC7=O)cc6)C(O)C5O)C(O)C(O)C4O3)ccc2c1 (centres unmarked)', 'not fulfilled'),
  ('CC(c1ccccc1)C1NC(=O)CNC(=O)C(CO)NC(=O)C(C(O)C2CNC(=N)N2C2OC(CO)C(O)C(O)C2O)NC(=O)C(C(O)C2CNC(=N)N2)NC(=O)C(Cc2ccc(OC3OC(CO)C(OC4OC5COC(CC6CCCCC6)OC5C(O)C4O)C(O)C3O)cc2)NC1=O (centres unmarked)', 'fulfilled'),
  ('CC(c1ccccc1)C1NC(=O)CNC(=O)C(CO)NC(=O)C(C(O)C2CNC(=N)N2C2OC(CO)C(O)C(O)C2O)NC(=O)C(C(O)C2CNC(=N)N2)NC(=O)C(Cc2ccc(OC3OC(CO)C(OC4OC5COC6(CC7CCC6(C)C7(C)C)OC5C(O)C4O)C(O)C3O)cc2)NC1=O (centres unmarked)', 'fulfilled');

Values compiled from patent US8247211B2.
